# METHOD_DESCRIPTION: NCI Yeast Anticancer Drug Screen. Data for the cln2 rad14 strain (AID 165);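 note: 0% = growth equal to vehicle treated cultures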
# EXPERIMENTAL_CONTEXT: S. cerevisiae cln2 rad14 strain, active compounds read high; at 50.0 µM unless noted
The panel holds about 79,000 compounds, 15% with a hit somewhere; the sample as a whole holds those more often. The source made the active and inactive calls. Cut-off read from the data, not from the text of the source: active = growth inhibition above about 70%; inactive = the rest. Where a SMILES comes first, the peptide text is derived from it.
QUANTITY_NAME: growth inhibition

The following molecules have reported results that may help.
| MOLECULE | QUANTITY_NAME | READING |
| --- | --- | --- |
| Cc1cccc(NC(=O)c2ccc(Cl)cc2Cl)c1 | growth inhibition | 13.6% (inactive) |
| CC(/C=C/C(=O)c1sc(-n2nc(-c3ccccc3)cc2-c2ccccc2)nc1C)=C\c1ccccc1 | growth inhibition | 8.85% (inactive) |
| CC(=O)OC1C(Br)CCCC1Br (configuration not stated) | growth inhibition | 1.9% (inactive) |
| CC(C)C(=O)NS(=O)(=O)c1ccccc1 | growth inhibition | -7.55% (inactive) |
| CCOC(=O)Nc1ccc(F)cc1C | growth inhibition | -4% (inactive) |

Record summary for O=C(Nc1ccc(F)cc1)c1ccc([N+](=O)[O-])cc1 : reported growth inhibition = -9.6% (inactive)

NC(=O)C1CCCN1C(=O)C(N)Cc1ccccc1 (stereo not drawn) (H-Phe-Pro-NH2; configuration not given here) yielded growth inhibition of 5.7% (inactive)

// C=C(C)C(C)OC(=O)Nc1ccccc1 (configuration not stated) : growth inhibition value = 7.4% (inactive)

The recorded growth inhibition for entry COc1cc(O)c(C/C=C/c2ccccc2)cc1O equals -12.3% (inactive)

Value of growth inhibition reported for the molecule CCC1=C(c2ccc(OC)cc2)CC[C@@]2(CCNC2=O)[C@@H]1C is 14.3% (inactive)

// recorded growth inhibition for CCCOC(CCC(=O)NC(C)(C)C)CC(=O)NC(C)(C)C (configuration not stated) : 4.15% (inactive)

// c1ccc2c(c1)/C(=N/c1nccs1)N/C2=N\c1nccs1 : growth inhibition value = -25.6% (inactive)
